Reference source: patent EP4759807A1

Biological target: CYP1A2 (Homo sapiens)
Construct: 0.05 mg/mL liver microsomes (BioIVT, IHG) phosphate buffer solution; tissue BioIVT IHG; host or cells: human liver microsomes
Sequence (P05177 1-516): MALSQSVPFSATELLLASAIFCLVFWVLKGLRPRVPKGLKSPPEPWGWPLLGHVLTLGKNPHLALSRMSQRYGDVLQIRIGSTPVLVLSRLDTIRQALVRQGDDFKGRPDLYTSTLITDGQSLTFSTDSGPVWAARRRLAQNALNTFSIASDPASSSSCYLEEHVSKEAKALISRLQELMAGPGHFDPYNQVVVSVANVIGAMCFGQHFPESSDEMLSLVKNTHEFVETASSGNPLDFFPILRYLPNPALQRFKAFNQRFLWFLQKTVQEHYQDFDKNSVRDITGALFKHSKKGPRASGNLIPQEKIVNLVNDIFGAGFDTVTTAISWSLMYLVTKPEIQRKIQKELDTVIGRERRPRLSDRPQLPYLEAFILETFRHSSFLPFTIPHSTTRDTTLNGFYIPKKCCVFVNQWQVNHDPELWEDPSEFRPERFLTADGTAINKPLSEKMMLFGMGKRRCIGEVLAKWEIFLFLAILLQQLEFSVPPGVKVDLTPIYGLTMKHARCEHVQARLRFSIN
Assay: Inhibitory effect on human liver microsome CYP450 enzyme
Assay type: in vitro ADME
Details: human liver microsomes, substrate Phenacetin

- compound: "Cn1c(=O)n(C2CCC(=O)NC2=O)c2cccc(N3CCC(N4CCN(C[C@H]5CC[C@H](n6cc(-n7cc(-c8cnn9ccc(N%10CCC[C@H](O)C%10)nc89)nn7)c(C(F)F)n6)CC5)CC4)CC3)c21 (some centres unmarked)"
  IC50: "> 30 µM"
- compound: "Cn1c(=O)n(C2CCC(=O)NC2=O)c2cccc(C#CCOC3CCN(C[C@H]4CC[C@H](n5cc(NC(=O)c6cnn7ccc(N8C[C@H]9C[C@@H]8CO9)nc67)c(C(F)F)n5)CC4)CC3)c21 (some centres unmarked) [KT474, reference compound]"
  IC50: "> 30 µM"

###

target: IRAK4 (Homo sapiens, UniProt Q9NWZ3); assay: Hibit fluorescence detection of proteolysis (IRAK4-HiBiT in HEK293T cells); format: cell-based; set-up: host or cells: HEK293T (ATCC); settings: HEK-293T
Sequence (Q9NWZ3 whole entry, species assumed): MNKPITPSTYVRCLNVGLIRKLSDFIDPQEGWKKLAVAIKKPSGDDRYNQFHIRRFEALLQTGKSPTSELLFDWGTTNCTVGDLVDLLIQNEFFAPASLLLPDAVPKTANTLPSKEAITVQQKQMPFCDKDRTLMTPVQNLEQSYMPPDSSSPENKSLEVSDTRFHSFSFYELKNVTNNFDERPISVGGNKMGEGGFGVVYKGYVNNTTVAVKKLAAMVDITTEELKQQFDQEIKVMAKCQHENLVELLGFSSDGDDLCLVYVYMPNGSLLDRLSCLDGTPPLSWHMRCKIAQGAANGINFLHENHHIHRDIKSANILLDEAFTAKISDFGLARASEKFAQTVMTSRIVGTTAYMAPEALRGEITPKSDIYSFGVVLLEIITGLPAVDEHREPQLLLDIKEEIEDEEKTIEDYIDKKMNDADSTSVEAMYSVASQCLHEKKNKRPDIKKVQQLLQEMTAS
Counter-ions that a name gives are not always drawn.
Dmax overview

- compound: "CN(C[C@H]1CC[C@H](n2cc(-n3cc(-c4cnn5ccc(N6CCOCC6)nc45)nn3)c(C(F)F)n2)CC1)C1CCC(Nc2cccc3c2n(C)c(=O)n3C2CCC(=O)NC2=O)CC1 (stereo partly drawn) [Example 20]"
  Dmax: "> 80%"
- compound: "Cn1c(=O)n(C2CCC(=O)NC2=O)c2cccc(N3CCC(N4CCN(C[C@H]5CC[C@H](n6cc(-n7cc(-c8cnn9ccc(N%10CCC(C)(O)CC%10)nc89)nn7)c(C(F)F)n6)CC5)CC4)CC3)c21 (stereo partly drawn) [Example 124]"
  Dmax: "> 80%"
- compound: "Cn1c(=O)n(C2CCC(=O)NC2=O)c2cccc(N3CCOC4(CCN(C[C@H]5CC[C@H](n6cc(-n7cc(-c8ccc9cc(C(N)=O)cnn89)nn7)c(C(F)F)n6)CC5)CC4)C3)c21 (stereo partly drawn) [Example 88]"
  Dmax: "70 to 80%"
- compound: "Cn1c(=O)n(C2CCC(=O)NC2=O)c2cccc(N3CCC4(CCN(C[C@H]5CC[C@H](n6cc(-n7cc(-c8cnn9ccc(N%10CCNCC%10)nc89)nn7)c(C(F)F)n6)CC5)CC4)CC3)c21 (stereo partly drawn) [Example 129, dihydrochloride]"
  Dmax: "> 80%"
- compound: "Cn1c(=O)n(C2CCC(=O)NC2=O)c2cccc(N3CCN(C[C@H]4CC[C@H](n5cc(-n6cc(-c7cnn8ccc(N9CCC(C)(O)CC9)nc78)nn6)c(C(F)F)n5)CC4)CC3)c21 (stereo partly drawn) [Compound 235]"
  Dmax: "> 80%"
- compound: "C[C@H]1CN(c2ccn3ncc(-c4cn(-c5cn([C@H]6CC[C@H](CN7CCC(N8CCN(c9cccc%10c9n(C)c(=O)n%10C9CCC(=O)NC9=O)CC8)CC7)CC6)nc5C(F)F)nn4)c3n2)CCO1 (stereo partly drawn) [Compound 208]"
  Dmax: "> 80%"
- compound: "Cn1c(=O)n(C2CCC(=O)NC2=O)c2cccc(N3CCC4(CCN(C[C@H]5CC[C@H](n6cc(-n7cc(-c8cnn9ccc(N%10CCC[C@H](N)C%10)nc89)nn7)c(C(F)F)n6)CC5)CC4)C3)c21 (stereo partly drawn) [Example 116]"
  Dmax: "> 80%"
- compound: "Cn1c(=O)n(C2CCC(=O)NC2=O)c2cccc(N3CCOC4(CCN(C[C@H]5CC[C@H](n6cc(-n7cc(-c8cnn9ccc(N%10CCOCC%10)nc89)nn7)c(C(F)F)n6)CC5)CC4)C3)c21 (stereo partly drawn) [Example 38]"
  Dmax: "< 60%"
- compound: "Cn1c(=O)n(C2CCC(=O)NC2=O)c2cccc(N3CCC4(CCN(C[C@H]5CC[C@H](n6cc(-n7cc(-n8ccc9cc(C(N)=O)cnc98)nn7)c(C(F)F)n6)CC5)C4)CC3)c21 (stereo partly drawn) [Example 97]"
  Dmax: "> 80%"

###

biological target: IRAK4 (Homo sapiens, UniProt Q9NWZ3); assay: Hibit fluorescence detection of proteolysis (IRAK4-HiBiT in HEK293T cells); format: cell-based; parameters: host or cells: HEK293T (ATCC); details: IRAK4-HiBiT, HEK293T cells, 24 h; read-out: DC50
endpoint.name: DC50

- compound: "C[C@H]1CN(c2ccn3ncc(-c4cn(-c5cn([C@H]6CC[C@H](CN7CCC8(CC7)CN(c7cccc9c7n(C)c(=O)n9C7CCC(=O)NC7=O)C8)CC6)nc5C(F)F)nn4)c3n2)CCO1 (stereo partly shown) [Compound 178]"
  assay.value: "< 0.5 nM"
- compound: "Cn1c(=O)n(C2CCC(=O)NC2=O)c2cccc(N[C@H]3CC[C@H](N(C)C[C@H]4CC[C@H](n5cc(-n6cc(-c7cnn8ccc(NCC9CC9)nc78)nn6)c(C(F)F)n5)CC4)CC3)c21 (stereo partly shown) [Compound 226]"
  assay.value: "< 0.5 nM"
- compound: "Cn1c(=O)n(C2CCC(=O)NC2=O)c2cccc(N3CCC4(CCN(C[C@H]5CC[C@H](n6cc(-n7cc(-c8cnn9cc(C#N)cnc89)nn7)c(C(F)F)n6)CC5)CC4)CC3)c21 (stereo partly shown) [Compound 199]"
  assay.value: "1 to 5 nM"
- compound: "NC(=O)c1cnn2c(-c3cn(-c4cn(C5CCN(CC6CCN(c7ccc(C(=O)NC8CCC(=O)NC8=O)c(F)c7)CC6)CC5)nc4C(F)F)nn3)ccc2c1 (stereo not shown) [Example 95]"
  assay.value: "> 5 nM"
- compound: "C[C@H]1CN(c2ccn3ncc(-c4cn(-c5cn([C@H]6CC[C@H](CN7CCC(N8CCN(c9cccc%10c9n(C)c(=O)n%10C9CCC(=O)NC9=O)CC8)CC7)CC6)nc5C(F)F)nn4)c3n2)CCO1 (stereo partly shown) [Compound 208]"
  assay.value: "< 0.5 nM"
- compound: "CN1CCN(c2ccn3ncc(-c4cn(-c5cn([C@H]6CC[C@H](CN(C)[C@H]7CC[C@H](Nc8cccc9c8n(C)c(=O)n9C8CCC(=O)NC8=O)CC7)CC6)nc5C(F)F)nn4)c3n2)CC1 (stereo partly shown) [Compound 230]"
  assay.value: "0.5 to 1 nM"
- compound: "CN1CCN(c2ccn3ncc(-c4cn(-c5cn([C@H]6CC[C@H](CN7CCC(N8CCN(c9cccc%10c9n(C)c(=O)n%10C9CCC(=O)NC9=O)CC8)CC7)CC6)nc5C(F)F)nn4)c3n2)CC1 (stereo partly shown) [Compound 229]"
  assay.value: "< 0.5 nM"
- compound: "Cn1c(=O)n(C2CCC(=O)NC2=O)c2cccc(N3CCC(N4CCN(C[C@H]5CC[C@H](n6cc(-n7cc(-c8cnn9ccc(N%10CC%11(COC%11)C%10)nc89)nn7)c(C(F)F)n6)CC5)CC4)CC3)c21 (stereo partly shown) [Compound 224]"
  assay.value: "< 0.5 nM"
- compound: "Cn1c(=O)n(C2CCC(=O)NC2=O)c2cccc(N3CCN(C[C@H]4CC[C@H](n5cc(-n6cc(-c7cnn8ccc(NCC9CC9)nc78)nn6)c(C(F)F)n5)CC4)CC3)c21 (stereo partly shown) [Compound 225]"
  assay.value: "< 0.5 nM"
- compound: "Cn1c(=O)n(C2CCC(=O)NC2=O)c2cccc(N3CCC4(CCN(C[C@H]5CC[C@H](n6cc(-n7cc(-c8cnn9ccc(N%10CCC(C)(O)CC%10)nc89)nn7)c(C(F)F)n6)CC5)C4)CC3)c21 (stereo partly shown) [Compound 238]"
  assay.value: "< 0.5 nM"
